Source: ChEMBL document CHEMBL2034838

tested on: Mus musculus; test: Hepatotoxicity in Swiss albino mouse assessed as change in liver total protein level assessed per 100 ml at 25 mg/kg/day for 15 days; format: toxicity, organism-based; conditions: in vivo, 360 h
Listed here are compounds together with their documented Activity.

Field: example entries. Status: answers known.
Item smiles: CCOc1cccc2sc(-n3c(CC)nc4ccc(Br)cc4c3=O)nc12
Activity: 1.82 g

Item smiles: CCc1nc2ccc(Br)cc2c(=O)n1-c1nc2cc(Cl)ccc2s1
Activity: 1.75 g

[Q] Data request, read-out Activity, for `CCc1nc2ccc(Br)cc2c(=O)n1-c1nc2c(OC)cccc2s1`
[A] 1.82 g

[Q] Data request, read-out Activity, for `CCc1nc2ccc(Br)cc2c(=O)n1-c1nc2ccc(OC)cc2s1`
[A] 1.78 g

[Q] Data request, read-out Activity, for `CCc1nc2ccc(Br)cc2c(=O)n1-c1nc2ccccc2s1`
[A] 1.82 g
